Heads up, these molecules all have IC50 values measured for cAMP and cAMP-inhibited cGMP 3',5'-cyclic phosphodiesterase 10A (Homo sapiens).

| Smi | IC50 [nM] |
| --- | --- |
| Cc1cn2nc(C)c(C)c2nc1C#Cc1nc(N2CCCC2)nn1C | 6.6 |
| Cc1nc2cc(C(F)(F)F)c(CCc3nc(N4CCCC4)nn3C)nn2c1C | 165 |
